# procedure-summary: Drug level in C57BL/6J mouse plasma at 10 mg/kg, po after 3 hrs
# Assay type: ADME, organism-based
readout-name: concentration at 3 h (ng/mL)
The answer is to be given in ng/mL; state only the numeric part.

Sample COc1cc(-c2nnc3n2CCC[C@@H]3c2ccc(Cl)cc2C(F)(F)F)ccc1-c1cnc(C)o1 — what was its concentration at 3 h?
6450

----------
# procedure-summary: Inhibition of gamma-secretase-mediated Notch processing in rat primary neuronal cells
# Format: cell-based
# run-conditions: Primary neuron
pIC50: −log10 of the molar value.
readout-name: pIC50

Sample COc1cc(-c2nnc3n2CCC[C@@H]3c2ccc(Cl)cc2C(F)(F)F)ccc1-c1cnc(C)o1 — what was its pIC50?
< 5.00

----------
# procedure-summary: Lipophilicity, log D of the compound at pH 7.4 by reversed phase chromatography
# Format: physicochemical
# run-conditions: buffer
Binarize chromatographic logD at 3; below is True, at or above is False.

Observe how each entry below is paired with its result.
{"columns": ["compound", "class"],
 "data": [
  ["COc1cc(-c2nnc3n2CCCC3c2ccc(F)cc2)ccc1-c1cnc(C)o1 (centres undefined)", "True"],
  ["COc1cc(-c2nnc(Cc3ccc(Cl)c(Cl)c3)[nH]2)ccc1-c1cnc(C)o1", "False"],
  ["COc1cc(-c2nnc3n2CCC[C@@H]3c2ccc(Cl)cc2C(F)(F)F)ccc1-c1cnc(C)o1", "False"],
  ["COc1cc(-c2nnc3n2CCCCC3c2ccc(Cl)c(Cl)c2)ccc1-c1cnc(C)o1 (centres undefined)", "False"],
  ["COc1cc(-c2nnc3n2CCC3c2ccc(Cl)c(Cl)c2)ccc1-c1cnc(C)o1 (centres undefined)", "False"]
]}

Field: below-cutoff. Rule: recorded chromatographic logD strictly less than 3. Subject: COc1cc(-c2nnc3n2CCCC3c2ccc(C(F)(F)F)cc2)ccc1-c1cnc(C)o1 (centres undefined)
True

Field: below-cutoff. Rule: recorded chromatographic logD strictly less than 3. Subject: COc1cc(-c2nc3n(n2)CCCC3c2ccc(Cl)c(Cl)c2)ccc1-c1cnc(C)o1 (centres undefined)
False

Field: below-cutoff. Rule: recorded chromatographic logD strictly less than 3. Subject: COc1ccc(C2CCCn3c(-c4ccc(-c5cnc(C)o5)c(OC)c4)nnc32)cc1 (centres undefined)
True

Field: below-cutoff. Rule: recorded chromatographic logD strictly less than 3. Subject: COc1cc(-c2nnc3n2CCCC3c2ccc(Cl)cc2C(F)(F)F)ccc1-c1cnc(C)o1 (centres undefined)
False

----------
# procedure-summary: Lipophilicity, log D of the compound at pH 7.4 by reversed phase chromatography
# Type: physicochemical
# run-conditions: buffer
readout-name: chromatographic logD
Could you respond with only the numeric value?

{"columns": ["molecule", "readout-name", "measurement"],
 "data": [
  ["COc1cc(-c2nnc3n2CCCC3c2ccc(Cl)c(C(F)(F)F)c2)ccc1-c1cnc(C)o1 (stereo unspecified)", "chromatographic logD", 3.2]
]}

Sample COc1cc(-c2nnc3n2CCOC3c2ccc(Cl)c(Cl)c2)ccc1-c1cnc(C)o1 (stereo unspecified) — what was its chromatographic logD?
3.1

Sample COc1cc(-c2nnc3n2CCCC3c2ccc(Cl)cc2)ccc1-c1cnc(C)o1 (stereo unspecified) — what was its chromatographic logD?
2.8

Sample COc1cc(-c2nnc3n2CCCC3c2cccc(C(F)(F)F)c2)ccc1-c1cnc(C)o1 (stereo unspecified) — what was its chromatographic logD?
2.8
